- Test system: U2OS
- PROTOCOL TEXT: Multiplex assay against U2OS
- Format: toxicity, cell-based
- TEST CONDITIONS: human, 12 h, 1 µM, compound concentration 1 uM, replicate 2
Recorded Population Healthy Nuclei (%) for the following compounds
Dear colleague, please return just the value in %, with no unit written.

COMPOUND	Population Healthy Nuclei (%)
CN(C)C(=O)Cn1cc(-c2ccc(-c3cncc4ccccc34)cc2)cn1	69
O=C1[C@H](Cc2ccc(O)cc2)N2C(=O)CCN(C(=O)NCc3ccccc3)[C@H]2CN1Cc1cccc2ccccc12	66
COC[C@@H](c1ccc(C(F)(F)F)cc1)N1CCN(C2(C)CCN(C(=O)c3c(C)ncnc3C)CC2)C[C@@H]1C.O=C(O)/C=C\C(=O)O [VICRIVIROC MALEATE]	67
CC(=O)Nc1cccc2c1c(Sc1ccc(Cl)cc1)c(C)n2CC(=O)O [AZD1981]	76
CCCCC(=O)N(Cc1ccc(-c2ccccc2-c2nnn[nH]2)cc1)[C@H](C(=O)O)C(C)C	79
CC(C)COc1ccc(CNC(=O)N(Cc2ccc(F)cc2)C2CCN(C)CC2)cc1 [PIMAVANSERIN]	80
Cl.N=C(N)NC(=O)Cc1c(Cl)cccc1Cl [GUANFACINE HYDROCHLORIDE]	72
CCCOc1ccc2[nH]cc(C3=CCNCC3)c2n1.Cl	78

Let us examine a further case.
Asked: Bench note: what Population Healthy Nuclei (%) did Cc1sc2c(c1C)C(c1ccc(Cl)cc1)=N[C@@H](CC(=O)NCCCCCCCCNC(=O)COc1cccc3c1C(=O)N(C1CCC(=O)NC1=O)C3=O)c1nnc(C)n1-2 (stereo partly drawn) show?
Given back: 80

###

- Tested on: HEK-293T
- PROTOCOL TEXT: Multiplex assay against HEK293T
- Assay type: toxicity, cell-based
- TEST CONDITIONS: human, 24 h, 1 µM, compound concentration 1 uM, replicate 2
Population Mitochondria Different-Phenotype (%) overview
Answer format: numeric, % implied, no suffix.

Asked: Request the reported Population Mitochondria Different-Phenotype (%) associated with `CC(/C=C1\SC(=S)N(CCCC(=O)Nc2ccc(C(=O)O)c(O)c2)C1=O)=C\c1ccccc1`
Given back: 52

Asked: # lookup: Population Mitochondria Different-Phenotype (%) of `NCCc1cn(S(=O)(=O)c2c(Cl)nc3sccn23)c2ccccc12.O=C(O)C(=O)O`
Given back: 46

Asked: // returns reported Population Mitochondria Different-Phenotype (%) for input `N#Cc1cc(F)cc(-c2nc(-c3ccc(F)cn3)no2)c1`
Given back: 36

Asked: Consider the compound Br.CS(=O)(=O)Nc1c(O)ccc2c1CCCC2C1=NCCN1 (centres undefined) and give its measured Population Mitochondria Different-Phenotype (%).
Given back: 41

Asked: Given the entry `Cc1cccc(NC(=O)CN2CCC(c3ccccn3)CC2)c1.Cl.Cl` , report its measured Population Mitochondria Different-Phenotype (%).
Given back: 44

###

- System: U2OS
- PROTOCOL TEXT: Multiplex assay against U2OS
- Format: toxicity, cell-based
- TEST CONDITIONS: human, 24 h, 10 µM, compound concentration 10 uM, replicate 1
Binary call on Population Hoechst High Intensity Objects (%): 1.0 from 2% upward, 0.0 beneath that.

Example cases with answers are listed next.
COMPOUND	MEASURED ON	LABEL CLASS
Cl.N=C(N)NC(=O)Cc1c(Cl)cccc1Cl [GUANFACINE HYDROCHLORIDE]	U2OS	0.0
CN1CCN(c2cc(-c3ccccc3)nc(N)n2)CC1	U2OS	0.0
CN(C)C(=O)Cn1cc(-c2ccc(-c3cncc4ccccc34)cc2)cn1	U2OS	1.0
COc1cccc2c1c(NS(=O)(=O)c1ccc(Cl)s1)nn2Cc1cccc(CNC(=O)C(C)(C)O)c1	U2OS	0.0
O=C1[C@H](Cc2ccc(O)cc2)N2C(=O)CCN(C(=O)NCc3ccccc3)[C@H]2CN1Cc1cccc2ccccc12	U2OS	1.0
Cc1cccc(NC(=O)CN2CCC(c3ccccn3)CC2)c1.Cl.Cl	U2OS	1.0
CC(=O)Nc1cccc2c1c(Sc1ccc(Cl)cc1)c(C)n2CC(=O)O	U2OS	0.0
CC(C)(C)c1cc(NC(=O)Nc2ccc(-c3cn4c(n3)sc3cc(OCCN5CCOCC5)ccc34)cc2)no1	U2OS	1.0
COC[C@@H](c1ccc(C(F)(F)F)cc1)N1CCN(C2(C)CCN(C(=O)c3c(C)ncnc3C)CC2)C[C@@H]1C.O=C(O)/C=C\C(=O)O [VICRIVIROC MALEATE]	U2OS	0.0
Cc1c(CC(=O)O)c2cccnc2n1Cc1ccc(S(C)(=O)=O)cc1C(F)(F)F	U2OS	0.0

Asked: Please check the record `Cc1onc(-c2ccccc2Cl)c1C(=O)N(C)c1ccc(Cl)cc1` and state if its Population Hoechst High Intensity Objects (%) is at or above 2%.
Given back: 1.0

Asked: State whether the measured Population Hoechst High Intensity Objects (%) reaches 2%, counting equality as reaching it, for `CCCOc1ccc2[nH]cc(C3=CCNCC3)c2n1.Cl`
Given back: 1.0

Asked: Record `CC(C)COc1ccc(CNC(=O)N(Cc2ccc(F)cc2)C2CCN(C)CC2)cc1` ; criterion: Population Hoechst High Intensity Objects (%) no lower than 2%. Met?
Given back: 1.0

Asked: Check if Population Hoechst High Intensity Objects (%) >= 2% (inclusive). Item: `NCCc1cn(S(=O)(=O)c2c(Cl)nc3sccn23)c2ccccc12.O=C(O)C(=O)O`
Given back: 1.0

###

- System: HEK-293T
- PROTOCOL TEXT: Multiplex assay against HEK293T
- Format: toxicity, cell-based
- TEST CONDITIONS: human, 12 h, 1 µM, compound concentration 1 uM, replicate 2
Decide by Total Cell Count: equal to or exceeding 300 means class 1, less means class 0.

COMPOUND	LABEL CLASS
Cc1c(CC(=O)O)c2cccnc2n1Cc1ccc(S(C)(=O)=O)cc1C(F)(F)F	class 1
COC[C@@H](c1ccc(C(F)(F)F)cc1)N1CCN(C2(C)CCN(C(=O)c3c(C)ncnc3C)CC2)C[C@@H]1C.O=C(O)/C=C\C(=O)O [VICRIVIROC MALEATE]	class 1
Cl.N=C(N)NC(=O)Cc1c(Cl)cccc1Cl [GUANFACINE HYDROCHLORIDE]	class 0
CC(C)COc1ccc(CNC(=O)N(Cc2ccc(F)cc2)C2CCN(C)CC2)cc1	class 1
CN1CCN(c2cc(-c3ccccc3)nc(N)n2)CC1	class 1

Asked: API: above_or_equal(metric=Total Cell Count, cutoff=300) for item `Cc1onc(-c2ccccc2Cl)c1C(=O)N(C)c1ccc(Cl)cc1`
Given back: class 1

Asked: Given `O=C1[C@H](Cc2ccc(O)cc2)N2C(=O)CCN(C(=O)NCc3ccccc3)[C@H]2CN1Cc1cccc2ccccc12` , state whether its Total Cell Count is at least 300.
Given back: class 0

Asked: # check: Total Cell Count of `N#Cc1cc(F)cc(-c2nc(-c3ccc(F)cn3)no2)c1` is greater than or equal to 300
Given back: class 1

###

- Tested on: U2OS
- PROTOCOL TEXT: Multiplex assay against U2OS
- Type: toxicity, cell-based
- TEST CONDITIONS: human, 12 h, 10 µM, compound concentration 10 uM, replicate 2
Listed here are compounds together with their documented Population Normal (%).
# output: bare number, implied unit %

Completed entries (count: 5):
COMPOUND	Population Normal (%)
COc1cccc2c1c(NS(=O)(=O)c1ccc(Cl)s1)nn2Cc1cccc(CNC(=O)C(C)(C)O)c1	94
COC[C@@H](c1ccc(C(F)(F)F)cc1)N1CCN(C2(C)CCN(C(=O)c3c(C)ncnc3C)CC2)C[C@@H]1C.O=C(O)/C=C\C(=O)O [VICRIVIROC MALEATE]	97
O=C(NCCN1CCC(n2c(=O)[nH]c3cc(Cl)ccc32)CC1)c1ccc(F)cc1 [HALOPEMIDE]	98
Cc1sc2c(c1C)C(c1ccc(Cl)cc1)=N[C@@H](CC(=O)NCCCCCCCCNC(=O)COc1cccc3c1C(=O)N(C1CCC(=O)NC1=O)C3=O)c1nnc(C)n1-2 (stereo partly specified)	99
COc1ccccc1N1CCN(C[C@@H](C(=O)NC(C)(C)C)c2ccccc2)CC1.Cl.Cl	99

Asked: API: value(readout=Population Normal (%), system=U2OS) for record `CN1CCN(c2cc(-c3ccccc3)nc(N)n2)CC1`
Given back: 98

Asked: What Population Normal (%) appears in the records for this compound with U2OS? Cl.NCCc1ccc(O)c(O)c1 [DOPAMINE HYDROCHLORIDE]
Given back: 100

Asked: For U2OS, provide Population Normal (%) of `Cc1onc(-c2ccccc2Cl)c1C(=O)N(C)c1ccc(Cl)cc1` please.
Given back: 99

Asked: Look up Population Normal (%) with U2OS for this compound: `O=C1[C@H](Cc2ccc(O)cc2)N2C(=O)CCN(C(=O)NCc3ccccc3)[C@H]2CN1Cc1cccc2ccccc12`
Given back: 93

Asked: Form field: Population Normal (%) recorded for CN[C@@H](C)C(=O)N[C@H](C(=O)N1CCC[C@H]1C(=O)Nc1snnc1-c1ccccc1)C1CCCCC1 [GDC-0152] with U2OS (enter value)
Given back: 94

Asked: What is its Population Normal (%) for U2OS? Entry: CC(=O)Nc1cccc2c1c(Sc1ccc(Cl)cc1)c(C)n2CC(=O)O [AZD1981]
Given back: 96

Asked: Record `N#Cc1c(Oc2cccc(OS(=O)(=O)CCCC(F)(F)F)c2)cccc1C(F)(F)F` : what is its Population Normal (%) with U2OS?
Given back: 99

Asked: Find the measured Population Normal (%): item CCCCC1=NC2(CCCC2)C(=O)N1Cc1ccc(-c2ccccc2-c2nnn[nH]2)cc1 [IRBESARTAN] , target or system U2OS.
Given back: 100

Asked: Value wanted: Population Normal (%) (U2OS) of entry `CCCOc1ccc2[nH]cc(C3=CCNCC3)c2n1.Cl`
Given back: 100

Values were extracted from ChEMBL document CHEMBL5058577.
